target: Mitogen-activated protein kinase 10 (Homo sapiens, UniProt P53779)
Sequence (P53779 whole entry): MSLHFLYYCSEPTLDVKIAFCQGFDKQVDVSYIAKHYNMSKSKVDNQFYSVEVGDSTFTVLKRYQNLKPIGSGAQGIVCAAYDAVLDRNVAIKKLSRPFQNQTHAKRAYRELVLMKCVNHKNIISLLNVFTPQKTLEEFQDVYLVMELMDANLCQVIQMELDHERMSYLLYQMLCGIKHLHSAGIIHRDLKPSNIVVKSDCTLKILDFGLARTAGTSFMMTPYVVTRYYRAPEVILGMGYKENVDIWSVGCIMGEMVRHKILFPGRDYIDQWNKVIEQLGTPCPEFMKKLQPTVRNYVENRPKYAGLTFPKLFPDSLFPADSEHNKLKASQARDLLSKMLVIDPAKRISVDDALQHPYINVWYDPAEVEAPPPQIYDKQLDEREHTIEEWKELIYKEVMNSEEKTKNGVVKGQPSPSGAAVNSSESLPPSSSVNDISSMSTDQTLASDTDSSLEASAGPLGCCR
methodSummary: Inhibition of human JNK3 at 10 uM after 40 mins by [gamma-33ATP] radiometric assay relative to control
testReadout: inhibition (%)

chemicalstructure=Cc1ccccc1C(=O)/C=C1\Nc2ccccc2NC1=O testreadout=inhibition unitdescriptor=% resultvalue=82
chemicalstructure=O=C1Nc2ccccc2N/C1=C\C(=O)c1ccccc1Cl testreadout=inhibition unitdescriptor=% resultvalue=93
chemicalstructure=O=C1Nc2ccccc2N/C1=C\C(=O)c1ccccc1C(F)(F)F testreadout=inhibition unitdescriptor=% resultvalue=16
chemicalstructure=Cc1cccc2c1NC(=O)/C(=C/C(=O)c1cccc3ccccc13)N2 testreadout=inhibition unitdescriptor=% resultvalue=16
chemicalstructure=O=C1Nc2ccccc2N/C1=C\C(=O)c1ccc2ccccc2c1 testreadout=inhibition unitdescriptor=% resultvalue=30
chemicalstructure=COc1cccc(C(=O)/C=C2\Nc3ccccc3NC2=O)c1 testreadout=inhibition unitdescriptor=% resultvalue=70

* * *

target: Mitogen-activated protein kinase 10 (Homo sapiens, UniProt P53779)
methodSummary: Inhibition of human JNK3 at 10 uM after 40 mins by [gamma-33ATP] radiometric assay relative to control
Kindly return class 1 if reported inhibition is no lower than 50%; return class 0 if it is lower.

chemicalstructure=N#Cc1ccc2c(c1)N/C(=C\C(=O)c1ccccc1Cl)C(=O)N2 target="Mitogen-activated protein kinase 10 (Homo sapiens, UniProt P53779)" grouplabel="class 1"
chemicalstructure=CC(C)(C)OC(=O)Nc1ccccc1C(=O)/C=C1\Nc2ccccc2NC1=O target="Mitogen-activated protein kinase 10 (Homo sapiens, UniProt P53779)" grouplabel="class 0"
chemicalstructure=O=C1Nc2ccccc2N/C1=C\C(=O)c1cccc(Cl)c1 target="Mitogen-activated protein kinase 10 (Homo sapiens, UniProt P53779)" grouplabel="class 1"
chemicalstructure=Cc1cccc(C(=O)/C=C2\Nc3cc(C#N)ccc3NC2=O)c1 target="Mitogen-activated protein kinase 10 (Homo sapiens, UniProt P53779)" grouplabel="class 0"
chemicalstructure=Cc1cccc(C(=O)/C=C2\Nc3ccccc3NC2=O)c1 target="Mitogen-activated protein kinase 10 (Homo sapiens, UniProt P53779)" grouplabel="class 1"
chemicalstructure=O=C1Nc2ccccc2N/C1=C\C(=O)c1cccc(NC(=O)c2ccccc2)c1 target="Mitogen-activated protein kinase 10 (Homo sapiens, UniProt P53779)" grouplabel="class 0"
chemicalstructure=O=C1Nc2ccc([N+](=O)[O-])cc2N/C1=C\C(=O)c1cccc2ccccc12 target="Mitogen-activated protein kinase 10 (Homo sapiens, UniProt P53779)" grouplabel="class 0"
chemicalstructure=N#Cc1cccc(C(=O)/C=C2\Nc3ccccc3NC2=O)c1 target="Mitogen-activated protein kinase 10 (Homo sapiens, UniProt P53779)" grouplabel="class 0"
chemicalstructure=Cc1ccccc1C(=O)/C=C1\Nc2cc(C#N)ccc2NC1=O target="Mitogen-activated protein kinase 10 (Homo sapiens, UniProt P53779)" grouplabel="class 0"
chemicalstructure=Nc1ccccc1C(=O)/C=C1\Nc2ccccc2NC1=O target="Mitogen-activated protein kinase 10 (Homo sapiens, UniProt P53779)" grouplabel="class 1"
chemicalstructure=O=C1Nc2ccccc2N/C1=C\C(=O)c1ccccc1NC(=O)c1ccccc1 target="Mitogen-activated protein kinase 10 (Homo sapiens, UniProt P53779)" grouplabel="class 0"

* * *

target: Mitogen-activated protein kinase 9 (Homo sapiens, UniProt P45984)
Sequence (P45984 whole entry, looked up): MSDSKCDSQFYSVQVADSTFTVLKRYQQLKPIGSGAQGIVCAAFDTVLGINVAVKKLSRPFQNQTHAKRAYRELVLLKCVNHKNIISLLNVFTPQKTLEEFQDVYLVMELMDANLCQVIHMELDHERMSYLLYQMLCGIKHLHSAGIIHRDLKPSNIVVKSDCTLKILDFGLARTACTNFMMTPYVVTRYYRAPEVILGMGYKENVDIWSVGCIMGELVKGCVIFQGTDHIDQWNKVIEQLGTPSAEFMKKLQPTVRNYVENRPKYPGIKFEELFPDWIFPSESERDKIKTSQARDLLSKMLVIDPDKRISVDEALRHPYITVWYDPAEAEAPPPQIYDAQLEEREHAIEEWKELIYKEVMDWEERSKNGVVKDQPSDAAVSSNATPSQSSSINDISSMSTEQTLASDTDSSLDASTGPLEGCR
methodSummary: Inhibition of human JNK2alpha2 at 30 uM after 40 mins by [gamma-33ATP] radiometric assay relative to control
The source made the active and inactive calls. The rule behind the calls is not given here.
testReadout: inhibition

chemicalstructure=COc1cccc(C(=O)/C=C2\Nc3ccccc3NC2=O)c1 target="Mitogen-activated protein kinase 9 (Homo sapiens, UniProt P45984)" resultvalue=inactive
chemicalstructure=O=C1Nc2ccccc2N/C1=C\C(=O)c1cccc(Cl)c1Cl target="Mitogen-activated protein kinase 9 (Homo sapiens, UniProt P45984)" resultvalue=inactive
chemicalstructure=Nc1ccccc1C(=O)/C=C1\Nc2ccccc2NC1=O target="Mitogen-activated protein kinase 9 (Homo sapiens, UniProt P45984)" resultvalue=inactive
chemicalstructure=N#Cc1ccc2c(c1)N/C(=C\C(=O)c1ccccc1Cl)C(=O)N2 target="Mitogen-activated protein kinase 9 (Homo sapiens, UniProt P45984)" resultvalue=inactive
chemicalstructure=Nc1cccc(C(=O)/C=C2\Nc3ccccc3NC2=O)c1 target="Mitogen-activated protein kinase 9 (Homo sapiens, UniProt P45984)" resultvalue=inactive
chemicalstructure=O=C1Nc2ccccc2N/C1=C\C(=O)c1cccc(Cl)c1 target="Mitogen-activated protein kinase 9 (Homo sapiens, UniProt P45984)" resultvalue=inactive
chemicalstructure=COc1ccccc1C(=O)/C=C1\Nc2cc(C#N)ccc2NC1=O target="Mitogen-activated protein kinase 9 (Homo sapiens, UniProt P45984)" resultvalue=inactive
chemicalstructure=O=C1Nc2ccccc2N/C1=C\C(=O)c1cccc2ccccc12 target="Mitogen-activated protein kinase 9 (Homo sapiens, UniProt P45984)" resultvalue=30%
chemicalstructure=O=C1c2ccccc2-c2n[nH]c3cccc1c23 target="Mitogen-activated protein kinase 9 (Homo sapiens, UniProt P45984)" resultvalue="> 95%"
chemicalstructure=O=C1Nc2ccccc2N/C1=C\C(=O)c1ccccc1Cl target="Mitogen-activated protein kinase 9 (Homo sapiens, UniProt P45984)" resultvalue=inactive
chemicalstructure=N#Cc1ccc2c(c1)N/C(=C\C(=O)c1cccc3ccccc13)C(=O)N2 target="Mitogen-activated protein kinase 9 (Homo sapiens, UniProt P45984)" resultvalue=inactive
chemicalstructure=COc1ccccc1C(=O)/C=C1\Nc2ccccc2NC1=O target="Mitogen-activated protein kinase 9 (Homo sapiens, UniProt P45984)" resultvalue=inactive

* * *

target: Mitogen-activated protein kinase 10 (Homo sapiens)
methodSummary: Inhibition of human JNK3 at 10 uM after 40 mins by [gamma-33ATP] radiometric assay relative to control
testReadout: inhibition (%)

chemicalstructure=O=C1Nc2c(Br)cccc2N/C1=C\C(=O)c1cccc2ccccc12 testreadout=inhibition resultvalue=24
chemicalstructure=N#Cc1ccc2c(c1)N/C(=C\C(=O)c1ccccc1Br)C(=O)N2 testreadout=inhibition resultvalue=63
chemicalstructure=O=C1c2ccccc2-c2n[nH]c3cccc1c23 testreadout=inhibition resultvalue=99
chemicalstructure=N#Cc1ccc2c(c1)N/C(=C\C(=O)c1cccc(Cl)c1Cl)C(=O)N2 testreadout=inhibition resultvalue=25
chemicalstructure=COc1ccccc1C(=O)/C=C1\Nc2ccccc2NC1=O testreadout=inhibition resultvalue=84
chemicalstructure=O=C1Nc2ccccc2N/C1=C\C(=O)c1cccc(Br)c1 testreadout=inhibition resultvalue=13
chemicalstructure=COc1cccc(C(=O)/C=C2\Nc3cc(C#N)ccc3NC2=O)c1 testreadout=inhibition resultvalue=19
chemicalstructure=N#Cc1ccccc1C(=O)/C=C1\Nc2ccccc2NC1=O testreadout=inhibition resultvalue=35
chemicalstructure=O=C1Nc2ccccc2N/C1=C\C(=O)c1cccc(Cl)c1Cl testreadout=inhibition resultvalue=91
chemicalstructure=O=C1Nc2ccccc2N/C1=C\C(=O)c1cccc(C(F)(F)F)c1 testreadout=inhibition resultvalue=21
chemicalstructure=N#Cc1ccc2c(c1)N/C(=C\C(=O)c1cccc3ccccc13)C(=O)N2 testreadout=inhibition resultvalue=88

* * *

target: Mitogen-activated protein kinase 9 (Homo sapiens, UniProt P45984)
methodSummary: Inhibition of human JNK2alpha2 at 30 uM after 40 mins by [gamma-33ATP] radiometric assay relative to control
Calls of active or inactive are those of the source. The calls are words filed in the database; no cut-off is given here.
testReadout: inhibition

chemicalstructure=N#Cc1ccc2c(c1)N/C(=C\C(=O)c1ccccc1Br)C(=O)N2 target="Mitogen-activated protein kinase 9 (Homo sapiens, UniProt P45984)" testreadout=inhibition resultvalue=inactive
chemicalstructure=Cc1ccccc1C(=O)/C=C1\Nc2ccccc2NC1=O target="Mitogen-activated protein kinase 9 (Homo sapiens, UniProt P45984)" testreadout=inhibition resultvalue=inactive
chemicalstructure=O=C1Nc2ccccc2N/C1=C\C(=O)c1ccccc1Br target="Mitogen-activated protein kinase 9 (Homo sapiens, UniProt P45984)" testreadout=inhibition resultvalue=inactive
chemicalstructure=Cc1cccc(C(=O)/C=C2\Nc3ccccc3NC2=O)c1 target="Mitogen-activated protein kinase 9 (Homo sapiens, UniProt P45984)" testreadout=inhibition resultvalue=inactive

* * *

target: Epidermal growth factor receptor (Homo sapiens, UniProt P00533, L858R)
Sequence (P00533 25-1210 L858R limits assumed): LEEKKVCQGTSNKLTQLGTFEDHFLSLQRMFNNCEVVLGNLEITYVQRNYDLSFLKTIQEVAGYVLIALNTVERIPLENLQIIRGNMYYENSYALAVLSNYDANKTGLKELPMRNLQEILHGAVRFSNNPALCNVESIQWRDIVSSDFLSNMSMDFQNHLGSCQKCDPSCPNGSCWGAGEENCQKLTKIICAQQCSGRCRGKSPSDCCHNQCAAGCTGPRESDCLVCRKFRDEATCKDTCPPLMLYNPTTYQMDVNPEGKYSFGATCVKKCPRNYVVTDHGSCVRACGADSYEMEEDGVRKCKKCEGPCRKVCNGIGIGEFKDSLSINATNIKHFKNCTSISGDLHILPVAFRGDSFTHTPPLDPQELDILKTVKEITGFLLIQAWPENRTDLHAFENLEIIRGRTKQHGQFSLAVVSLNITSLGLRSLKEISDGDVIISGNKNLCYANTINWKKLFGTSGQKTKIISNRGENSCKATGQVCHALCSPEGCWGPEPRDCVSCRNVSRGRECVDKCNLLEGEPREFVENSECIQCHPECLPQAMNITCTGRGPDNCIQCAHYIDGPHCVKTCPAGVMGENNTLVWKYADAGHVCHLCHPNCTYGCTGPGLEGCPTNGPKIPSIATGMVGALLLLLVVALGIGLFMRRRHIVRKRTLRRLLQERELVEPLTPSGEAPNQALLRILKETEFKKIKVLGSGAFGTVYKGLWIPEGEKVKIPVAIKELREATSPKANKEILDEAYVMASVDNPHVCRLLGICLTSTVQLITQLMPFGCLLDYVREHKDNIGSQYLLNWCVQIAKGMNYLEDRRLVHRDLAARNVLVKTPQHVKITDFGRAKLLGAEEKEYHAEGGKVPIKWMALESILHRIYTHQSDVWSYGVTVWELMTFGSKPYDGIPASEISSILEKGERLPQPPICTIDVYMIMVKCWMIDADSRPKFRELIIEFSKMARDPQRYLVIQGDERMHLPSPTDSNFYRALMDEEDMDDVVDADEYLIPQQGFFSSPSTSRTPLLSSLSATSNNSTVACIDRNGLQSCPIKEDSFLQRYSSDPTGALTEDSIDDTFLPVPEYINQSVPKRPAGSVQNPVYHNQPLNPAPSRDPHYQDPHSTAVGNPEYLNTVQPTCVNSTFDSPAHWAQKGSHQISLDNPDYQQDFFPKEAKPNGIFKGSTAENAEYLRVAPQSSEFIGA
methodSummary: Inhibition of human EGFR L858R using poly[Glu:Tyr] (4:1) as substrate measured after 40 mins in presence of [gamma-33P]ATP by radiometric assay
testReadout: IC50

chemicalstructure=N#Cc1ccc2c(c1)N/C(=C\C(=O)c1cccc3ccccc13)C(=O)N2 resultvalue="> 10 µM"

* * *

target: Mitogen-activated protein kinase 10 (Homo sapiens, UniProt P53779)
methodSummary: Inhibition of human JNK3 at 10 uM after 40 mins by [gamma-33ATP] radiometric assay relative to control
testReadout: inhibition (%)

chemicalstructure=O=C1Nc2ccccc2N/C1=C\C(=O)c1ccccc1Br target="Mitogen-activated protein kinase 10 (Homo sapiens, UniProt P53779)" testreadout=inhibition unitdescriptor=% resultvalue=89
chemicalstructure=Nc1cccc(C(=O)/C=C2\Nc3ccccc3NC2=O)c1 target="Mitogen-activated protein kinase 10 (Homo sapiens, UniProt P53779)" testreadout=inhibition unitdescriptor=% resultvalue=80
chemicalstructure=COc1ccccc1C(=O)/C=C1\Nc2cc(C#N)ccc2NC1=O target="Mitogen-activated protein kinase 10 (Homo sapiens, UniProt P53779)" testreadout=inhibition unitdescriptor=% resultvalue=57

Reference source: ChEMBL document CHEMBL4765361
